biological target: Mu-type opioid receptor (Homo sapiens); experiment: Agonist activity at human mu opioid receptor expressed in CHOK1 cells coexpressing Galpha15 assessed as intracellular calcium AUC in presence of mu opioid receptor antagonist naloxone and incubated for 1 hr measured for 90 secs at 1.5 sec interval by FLIPR assay to morphine; type: functional, cell-based; set-up: concentration or dose not given beside the values
parameter: Activity

| smilesData | testResult |
| --- | --- |
| CCc1ccccc1Nc1ncc(-c2sc(C)nc2C)o1 | 34.4% |
| CCc1cccc(C)c1Nc1nc(-c2sc(C)nc2C)cs1 | 38.2% |
| CCc1ccccc1Nc1nc(-c2oc(C)nc2C)cs1 | 76.2% |
| Cc1nc(C)c(-c2csc(Nc3ccccc3CC(F)(F)F)n2)s1 | 72.1% |
| Cc1cc(C)c(Nc2nc(-c3oc(C)nc3C)cs2)c(C)c1 | 43.2% |

* * *

biological target: Mu-type opioid receptor (Homo sapiens, UniProt P35372); assay: Agonist activity at human mu opioid receptor expressed in CHOK1 cells coexpressing Galpha15 assessed as intracellular calcium AUC in presence of mu opioid receptor antagonist naloxone and incubated for 1 hr measured for 90 secs at 1.5 sec interval by FLIPR assay to morphine; type: functional, cell-based; design: concentration or dose not given beside the values
Sequence (P35372 whole entry): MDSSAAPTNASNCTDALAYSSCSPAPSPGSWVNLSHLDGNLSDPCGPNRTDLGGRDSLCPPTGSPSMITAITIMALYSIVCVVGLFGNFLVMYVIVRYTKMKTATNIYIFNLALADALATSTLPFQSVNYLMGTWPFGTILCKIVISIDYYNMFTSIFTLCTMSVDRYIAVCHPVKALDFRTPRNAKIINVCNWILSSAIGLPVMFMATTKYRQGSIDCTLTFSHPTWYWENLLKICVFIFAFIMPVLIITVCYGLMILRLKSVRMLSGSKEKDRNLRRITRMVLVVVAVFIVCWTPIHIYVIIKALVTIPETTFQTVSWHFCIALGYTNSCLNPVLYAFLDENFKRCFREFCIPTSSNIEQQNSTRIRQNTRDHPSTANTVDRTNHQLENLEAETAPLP
The source made the active and inactive calls. No cut-off for these calls is given here.

| smilesData | Activity |
| --- | --- |
| Cc1nc(C)c(-c2csc(Nc3ccc(Br)cc3C(F)(F)F)n2)s1 | 32.9% |
| COc1cccc(Nc2nc(-c3sc(C)nc3C)cs2)c1C | 27.2% |
| CCc1ccccc1Nc1nc(-c2sc(C)nc2C)c(C)s1 | inactive |
| Cc1nc(C)c(-c2csc(Nc3c(C)cccc3F)n2)s1 | 32% |
| COc1ccc(Nc2nc(-c3sc(C)nc3C)cs2)c(OC)c1 | 45.2% |
| CCc1ccccc1Nc1nc(-c2sc(-c3ccccc3)nc2C)cs1 | inactive |

* * *

biological target: Mu-type opioid receptor (Homo sapiens, UniProt P35372); assay: Agonist activity at human mu opioid receptor expressed in CHOK1 cells coexpressing Galpha15 assessed as intracellular calcium AUC in presence of mu opioid receptor antagonist naloxone and incubated for 1 hr measured for 90 secs at 1.5 sec interval by FLIPR assay to morphine; format: functional, cell-based; parameters: concentration or dose not given beside the values
The source made the active and inactive calls. No cut-off for these calls is given here.

| smilesData | Activity |
| --- | --- |
| Cc1nc(C)c(-c2csc(N)n2)s1 | inactive |
| CCc1ccccc1Nc1nc(-c2nccs2)cs1 | inactive |
| CCc1nc(C)c(-c2csc(Nc3ccccc3CC)n2)s1 | 32.5% |
| COc1ccc(Nc2nc(-c3sc(C)nc3C)cs2)c(C)c1 | 32.6% |
| Cc1nc(C)c(-c2csc(Nc3ccc(Br)cc3C)n2)s1 | inactive |
| CCc1ccccc1Nc1nc(C)cs1 | inactive |
| Cc1cc(C)c(Nc2nc(-c3sc(C)nc3C)cs2)c(C)c1 | 52% |
| Cc1ccc(Nc2nc(-c3sc(C)nc3C)cs2)c(C)c1 | 57.2% |
| Cc1nc(C)c(-c2csc(Nc3cccc(F)c3C)n2)s1 | 57.9% |
| CCc1ccccc1Nc1nc(-c2sc(N)nc2C)cs1 | inactive |
| CCc1cc(Br)ccc1Nc1nc(-c2sc(C)nc2C)cs1 | 5.9% |
| Cc1nc(C)c(-c2csc(Nc3c(C(C)C)cccc3C(C)C)n2)s1 | inactive |
